study-target: Receptor-type tyrosine-protein kinase FLT3 (Homo sapiens, UniProt P36888)
Sequence (P36888 whole entry): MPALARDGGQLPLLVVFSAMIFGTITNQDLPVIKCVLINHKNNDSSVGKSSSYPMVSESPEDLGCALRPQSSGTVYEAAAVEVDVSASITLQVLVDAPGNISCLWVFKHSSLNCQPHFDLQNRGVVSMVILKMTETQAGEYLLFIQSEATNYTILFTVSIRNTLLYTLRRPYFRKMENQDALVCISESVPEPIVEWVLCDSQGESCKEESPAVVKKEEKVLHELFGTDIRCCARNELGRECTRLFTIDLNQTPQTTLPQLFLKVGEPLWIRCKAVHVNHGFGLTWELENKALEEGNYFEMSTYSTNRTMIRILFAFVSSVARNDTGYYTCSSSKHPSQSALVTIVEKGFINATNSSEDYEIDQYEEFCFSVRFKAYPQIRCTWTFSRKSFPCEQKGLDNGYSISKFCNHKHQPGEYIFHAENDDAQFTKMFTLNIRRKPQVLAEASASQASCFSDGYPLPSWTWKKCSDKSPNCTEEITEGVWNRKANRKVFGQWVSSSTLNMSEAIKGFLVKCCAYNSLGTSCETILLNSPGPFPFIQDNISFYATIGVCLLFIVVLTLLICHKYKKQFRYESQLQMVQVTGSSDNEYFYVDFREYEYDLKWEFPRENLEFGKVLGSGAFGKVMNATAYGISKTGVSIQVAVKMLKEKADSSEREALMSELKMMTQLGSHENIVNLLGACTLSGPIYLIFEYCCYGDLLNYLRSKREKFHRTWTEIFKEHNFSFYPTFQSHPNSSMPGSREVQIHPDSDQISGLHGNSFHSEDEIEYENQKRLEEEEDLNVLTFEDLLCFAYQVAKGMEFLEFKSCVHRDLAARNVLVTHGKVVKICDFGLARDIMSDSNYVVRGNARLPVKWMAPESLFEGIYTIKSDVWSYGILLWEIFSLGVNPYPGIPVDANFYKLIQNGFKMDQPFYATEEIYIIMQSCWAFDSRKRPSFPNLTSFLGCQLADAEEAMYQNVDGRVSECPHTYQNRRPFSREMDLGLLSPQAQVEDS
quantity: log10 of IC50 (log10 of the value in nM)

chemical-structure: N#CCc1ccc(-c2cnc3cc(-c4cccs4)ccn23)cc1
study-target: Receptor-type tyrosine-protein kinase FLT3 (Homo sapiens, UniProt P36888)
readout-value: 1.71
//
chemical-structure: N#Cc1cc(-c2cnc3cc(-c4ccco4)ccn23)ccc1F
study-target: Receptor-type tyrosine-protein kinase FLT3 (Homo sapiens, UniProt P36888)
readout-value: 2.67
//
chemical-structure: Fc1ccc(-c2cnc3ccccn23)cc1
study-target: Receptor-type tyrosine-protein kinase FLT3 (Homo sapiens, UniProt P36888)
readout-value: 2.68
//
chemical-structure: N#Cc1cc(-c2cnc3cc(-c4ccccc4)ccn23)ccc1F
study-target: Receptor-type tyrosine-protein kinase FLT3 (Homo sapiens, UniProt P36888)
readout-value: 2.36
//
chemical-structure: Fc1ccc(-c2cnc3cc(-c4ccco4)ccn23)cc1
study-target: Receptor-type tyrosine-protein kinase FLT3 (Homo sapiens, UniProt P36888)
readout-value: 1.61
//
chemical-structure: COc1ccc(-c2ccn3c(-c4ccc(C)cc4)cnc3c2)cc1
study-target: Receptor-type tyrosine-protein kinase FLT3 (Homo sapiens, UniProt P36888)
readout-value: 2.64
//
chemical-structure: Cc1ccc(-c2cnc3cc(-c4ccco4)ccn23)cc1
study-target: Receptor-type tyrosine-protein kinase FLT3 (Homo sapiens, UniProt P36888)
readout-value: 2.20
//
chemical-structure: Cc1ccc(-c2cnc3cc(-c4ccccc4)ccn23)cc1
study-target: Receptor-type tyrosine-protein kinase FLT3 (Homo sapiens, UniProt P36888)
readout-value: 2.48
//
chemical-structure: N#CCc1ccc(-c2cnc3cc(-c4ccco4)ccn23)cc1
study-target: Receptor-type tyrosine-protein kinase FLT3 (Homo sapiens, UniProt P36888)
readout-value: 2.28
//
chemical-structure: COc1ccc(-c2ccn3c(-c4ccc(F)cc4)cnc3c2)cc1
study-target: Receptor-type tyrosine-protein kinase FLT3 (Homo sapiens, UniProt P36888)
readout-value: 1.89
//
chemical-structure: N#CCc1ccc(-c2cnc3cc(-c4ccccc4)ccn23)cc1
study-target: Receptor-type tyrosine-protein kinase FLT3 (Homo sapiens, UniProt P36888)
readout-value: 2.74
//
chemical-structure: Fc1ccc(-c2cnc3cc(-c4ccccc4)ccn23)cc1
study-target: Receptor-type tyrosine-protein kinase FLT3 (Homo sapiens, UniProt P36888)
readout-value: 1.20
//
chemical-structure: COc1ccc(-c2ccn3c(-c4ccc(CC#N)cc4)cnc3c2)cc1
study-target: Receptor-type tyrosine-protein kinase FLT3 (Homo sapiens, UniProt P36888)
readout-value: 2.63

Values compiled from ChEMBL document CHEMBL3414435.
